- Tested target: Dual specificity protein phosphatase 6 (Homo sapiens) (UniProt Q16828)
- Sequence (Q16828 whole entry, looked up): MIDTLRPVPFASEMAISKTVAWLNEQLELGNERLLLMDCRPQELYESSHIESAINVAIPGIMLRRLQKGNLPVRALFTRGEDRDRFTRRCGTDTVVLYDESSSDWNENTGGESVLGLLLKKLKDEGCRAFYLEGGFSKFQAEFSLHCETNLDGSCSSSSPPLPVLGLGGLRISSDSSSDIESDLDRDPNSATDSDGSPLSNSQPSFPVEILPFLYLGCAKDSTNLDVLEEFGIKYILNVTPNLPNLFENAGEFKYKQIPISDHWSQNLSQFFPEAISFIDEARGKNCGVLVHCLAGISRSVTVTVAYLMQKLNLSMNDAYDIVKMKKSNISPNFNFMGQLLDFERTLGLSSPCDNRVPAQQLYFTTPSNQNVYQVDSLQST
- Assay comment: DUSP6 inhibitors restoring Erk phosphorylation by chemical complementation, primary imaging in DUSP6-transfected HeLa (AID 609);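 note: phospho-Erk level distribution per well compared with pooled transfected vehicle control wells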
- Measurement parameters: HeLa MKP-3 transfected, phospho-Erk imaging KS statistic; at 10 µM; stronger effect = higher value; cells stimulated with TPA for 15 min
Measurement type: inhibition (%)
Numbers only, in %.

Past entries and their recorded results:
COc1ccc2cnn(-c3ccccc3C)c(=O)c2c1OC | -6.48
O=C(Nc1ccc2c(c1)OCCO2)c1ccc(Br)o1 | -1.75
Cc1ccc2c(=O)c(CN(C)C3CCN(C)CC3)c(C)[nH]c2c1C | 1.12
CC[N+](C)(C)Cc1ccccc1Br | 11.3
COc1ccc(C2=Nn3c(nnc3-c3ccccc3)SC2)cc1OC | -11.5
Cc1ccc(S(=O)(=O)c2cc3c(=O)n4ccccc4nc3n(C)c2=N)cc1 | -16.8

State the recorded inhibition for every item in the following list.
1. O=c1cc(NCc2ccccc2)nc2n1CCCS2
2. COC(=O)C1=C(C)N=C2SC(C)C(=O)N2C1c1cccs1 (configuration not stated)
3. Brc1c(NC2=NCCN2)ccc2nccnc12
4. CC(=O)Nc1cccc(NC(=O)CSc2nc(C)c(C)c(C)c2C#N)c1
5. COc1cc(C2C(C#N)=C(N)Oc3cc(C)n(CCN4CCOCC4)c(=O)c32)cc(OC)c1OC (configuration not stated)
6. CCCCOc1nc2ccccc2nc1C(C#N)C(=O)NC1CCCCC1 (configuration not stated)

Result:
1. -4.7
2. 22.8
3. 34.5
4. -4.27
5. -4.7
6. -15.8
